The values you see were collected from patent US20210221899A1.

- System: T1, rat NGF (rat, UniProt P25427 122-241)
- T1 construct: also called rN
- T1 sequence (P25427 122-241 limits assumed): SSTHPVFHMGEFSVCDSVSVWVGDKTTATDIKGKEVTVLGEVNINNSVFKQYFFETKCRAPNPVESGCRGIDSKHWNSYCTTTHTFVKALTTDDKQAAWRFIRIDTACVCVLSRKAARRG
- Test name: SPR (Biacore T200), 100 nM mAb on NGF chip, similarity to parent mAb
Percent Similarity Score (KD on rN) overview
Units required after the number.

can48L2VL_A100L (antibody, V domains shown, CDR scanning mutant of ZTS-842 (48L2)) VH: EVQLVESGGDLVKPGGSLRLSCVASGFTFSTYGINWVRQAPGKGLQWVAYISSGGSSTYYADPVKGRFTISRDDAKNMLYLQMNSLRAEDTAIYYCAGSRYTYAYGGGYEFHFWGQGTLVTVSS VL: QAVLNQPASVSGALGQKVTISCSGSTMDIDIFGVSWYQQLPGKAPKLLVDSDGDRPSGIPDRFSGSRSGNSGTLTITGLQAEDEADYHCQSGDSTLGALLIFGGGTHVTVL : 98.3%

stdin: So what does the record say about Percent Similarity Score (KD on rN) for can9L12VH_F112A (antibody, V domains shown) VH: EVQLVESGGDLVKPGGSLRLSCVASGFTFSSHGMHWVRQSPGKGLQWVAVINSGGSSTYYTDAVKGRFTISRDNAKNTVYLQMNSLRAEDTAMYYCAKESVGGWEQLVGPHADYWGQGTLVIVSS VL: QSVLTQPTSVSGSLGQRVTISCSGSTNNIGILGASWYQLFPGKAPKLLVYGNGNRPSGVPDRFSGADSGDSVTLTITGLQAEDEADYYCQSFDTTLGAHVFGGGTHLTVL ?
stdout: 11.8%
